Values were extracted from the supplement of paper PMC3334620.

Molecular target: Pdr3 (UniProt P33200)
Sequence: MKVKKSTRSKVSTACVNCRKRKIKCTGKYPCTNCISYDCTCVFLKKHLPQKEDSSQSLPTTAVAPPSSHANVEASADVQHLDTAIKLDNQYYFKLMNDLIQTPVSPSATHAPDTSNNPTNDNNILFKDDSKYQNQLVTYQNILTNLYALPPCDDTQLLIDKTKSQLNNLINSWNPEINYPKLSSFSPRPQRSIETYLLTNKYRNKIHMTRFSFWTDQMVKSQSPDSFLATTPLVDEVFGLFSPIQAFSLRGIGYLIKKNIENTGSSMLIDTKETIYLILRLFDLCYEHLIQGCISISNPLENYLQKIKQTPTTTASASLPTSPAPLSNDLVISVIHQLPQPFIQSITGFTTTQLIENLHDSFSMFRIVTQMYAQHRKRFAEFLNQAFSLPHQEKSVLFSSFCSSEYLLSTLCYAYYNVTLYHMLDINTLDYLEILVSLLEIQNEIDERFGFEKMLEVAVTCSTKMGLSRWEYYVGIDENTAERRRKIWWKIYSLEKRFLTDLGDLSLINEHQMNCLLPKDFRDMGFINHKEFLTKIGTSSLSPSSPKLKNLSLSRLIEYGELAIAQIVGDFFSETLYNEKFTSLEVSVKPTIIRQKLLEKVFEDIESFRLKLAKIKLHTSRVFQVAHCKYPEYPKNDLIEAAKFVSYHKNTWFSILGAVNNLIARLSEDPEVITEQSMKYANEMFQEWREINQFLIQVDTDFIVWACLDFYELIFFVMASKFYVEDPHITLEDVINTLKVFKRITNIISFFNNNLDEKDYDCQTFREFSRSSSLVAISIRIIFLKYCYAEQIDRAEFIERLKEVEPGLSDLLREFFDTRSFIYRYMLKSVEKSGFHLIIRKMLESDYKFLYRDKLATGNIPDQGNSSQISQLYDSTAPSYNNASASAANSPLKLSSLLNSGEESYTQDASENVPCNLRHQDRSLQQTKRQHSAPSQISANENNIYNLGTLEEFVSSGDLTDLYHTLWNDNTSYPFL
Experiment: PBM E-score (8-mer binding enrichment) (E-score (-0.5 to 0.5)); higher = stronger / more preferred TF binding
Settings: protein concentration: 200 nM; construct: GST-full length
The full ranking holds about 33,000 sequences; the median of “E-score (-0.5 to 0.5)” is about -0.035, and the highest 2% start at about 0.35. The sample as a whole holds a higher share of the highest values than the screen did.
MEASUREMENT_LABEL: PBM E-score
Simply state the number, no unit and no words.

Below, each entry is followed by its recorded PBM E-score result.
{"columns": ["POLYMER_SEQUENCE", "RESULT_NUMBER"],
 "data": [
  ["CGAACCGA", 0.15],
  ["AGAACCGA", 0.0498],
  ["AAATGATG", 0.133],
  ["AAGCGGTC", 0.00531],
  ["AGCGTGGG", -0.253]
]}

Data request: Complete the entry with PBM E-score for GGAACGCA
Data returned: 0.275

Data request: Complete the entry with PBM E-score for ATTTGCAG
Data returned: -0.0031

Data request: Complete the entry with PBM E-score for TCGGGTAA
Data returned: 0.0953

Data request: Complete the entry with PBM E-score for TATTCCGA
Data returned: 0.407

Data request: Complete the entry with PBM E-score for GATTCCCA
Data returned: 0.0551

====

Molecular target: Pdr3 (UniProt P33200)
Sequence: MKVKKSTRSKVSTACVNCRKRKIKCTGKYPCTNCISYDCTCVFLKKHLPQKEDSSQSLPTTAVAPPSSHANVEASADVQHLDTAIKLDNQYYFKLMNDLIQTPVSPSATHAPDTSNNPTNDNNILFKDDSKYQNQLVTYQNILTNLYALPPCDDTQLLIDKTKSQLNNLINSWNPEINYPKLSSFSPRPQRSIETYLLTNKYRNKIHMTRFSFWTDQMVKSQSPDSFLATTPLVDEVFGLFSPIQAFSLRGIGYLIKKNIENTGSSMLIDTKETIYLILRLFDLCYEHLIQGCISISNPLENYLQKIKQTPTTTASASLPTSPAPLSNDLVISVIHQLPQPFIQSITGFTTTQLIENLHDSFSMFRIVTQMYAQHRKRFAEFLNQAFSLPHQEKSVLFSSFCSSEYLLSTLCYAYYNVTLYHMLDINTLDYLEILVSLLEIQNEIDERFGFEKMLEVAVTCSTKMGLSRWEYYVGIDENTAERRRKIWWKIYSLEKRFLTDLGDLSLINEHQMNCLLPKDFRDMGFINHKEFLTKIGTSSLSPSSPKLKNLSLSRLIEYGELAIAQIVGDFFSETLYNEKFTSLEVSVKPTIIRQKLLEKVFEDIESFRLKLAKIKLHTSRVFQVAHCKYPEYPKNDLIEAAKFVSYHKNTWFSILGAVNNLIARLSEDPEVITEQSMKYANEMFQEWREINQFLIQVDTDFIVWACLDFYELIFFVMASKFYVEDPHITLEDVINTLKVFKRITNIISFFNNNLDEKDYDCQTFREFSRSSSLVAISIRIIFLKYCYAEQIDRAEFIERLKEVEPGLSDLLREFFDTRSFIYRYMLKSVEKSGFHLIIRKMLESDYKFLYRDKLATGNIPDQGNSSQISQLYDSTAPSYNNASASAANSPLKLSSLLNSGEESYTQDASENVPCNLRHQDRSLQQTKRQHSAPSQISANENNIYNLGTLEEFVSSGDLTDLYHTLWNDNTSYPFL
Test: PBM E-score (8-mer binding enrichment) (E-score (-0.5 to 0.5)); higher = stronger / more preferred TF binding
Conditions: protein concentration: 200 nM; construct: GST-full length
The full ranking holds about 33,000 sequences; the median of “E-score (-0.5 to 0.5)” is about -0.035, and the highest 2% start at about 0.35. Only a selection was taken, and the highest values are over-represented in it overall.
MEASUREMENT_LABEL: PBM E-score

Below, each entry is followed by its recorded PBM E-score result.
{"columns": ["POLYMER_SEQUENCE", "PBM E-score"],
 "data": [
  ["CAGGTGGC", -0.197],
  ["CGAAATAG", 0.0496],
  ["CAGACGAA", 0.199],
  ["TACCTAGA", -0.195],
  ["AAAGACTA", -0.113],
  ["CGTCGACC", 0.0668],
  ["TAGCATGA", -0.224],
  ["CTGATGCA", 0.0307]
]}

Data request: Complete the entry with PBM E-score for CCGTAACA
Data returned: -0.0633

Data request: Complete the entry with PBM E-score for ATGTTCGC
Data returned: -0.165

Data request: Complete the entry with PBM E-score for ACGAATAT
Data returned: 0.0203

====

Target: Pdr3 (UniProt P33200)
Sequence: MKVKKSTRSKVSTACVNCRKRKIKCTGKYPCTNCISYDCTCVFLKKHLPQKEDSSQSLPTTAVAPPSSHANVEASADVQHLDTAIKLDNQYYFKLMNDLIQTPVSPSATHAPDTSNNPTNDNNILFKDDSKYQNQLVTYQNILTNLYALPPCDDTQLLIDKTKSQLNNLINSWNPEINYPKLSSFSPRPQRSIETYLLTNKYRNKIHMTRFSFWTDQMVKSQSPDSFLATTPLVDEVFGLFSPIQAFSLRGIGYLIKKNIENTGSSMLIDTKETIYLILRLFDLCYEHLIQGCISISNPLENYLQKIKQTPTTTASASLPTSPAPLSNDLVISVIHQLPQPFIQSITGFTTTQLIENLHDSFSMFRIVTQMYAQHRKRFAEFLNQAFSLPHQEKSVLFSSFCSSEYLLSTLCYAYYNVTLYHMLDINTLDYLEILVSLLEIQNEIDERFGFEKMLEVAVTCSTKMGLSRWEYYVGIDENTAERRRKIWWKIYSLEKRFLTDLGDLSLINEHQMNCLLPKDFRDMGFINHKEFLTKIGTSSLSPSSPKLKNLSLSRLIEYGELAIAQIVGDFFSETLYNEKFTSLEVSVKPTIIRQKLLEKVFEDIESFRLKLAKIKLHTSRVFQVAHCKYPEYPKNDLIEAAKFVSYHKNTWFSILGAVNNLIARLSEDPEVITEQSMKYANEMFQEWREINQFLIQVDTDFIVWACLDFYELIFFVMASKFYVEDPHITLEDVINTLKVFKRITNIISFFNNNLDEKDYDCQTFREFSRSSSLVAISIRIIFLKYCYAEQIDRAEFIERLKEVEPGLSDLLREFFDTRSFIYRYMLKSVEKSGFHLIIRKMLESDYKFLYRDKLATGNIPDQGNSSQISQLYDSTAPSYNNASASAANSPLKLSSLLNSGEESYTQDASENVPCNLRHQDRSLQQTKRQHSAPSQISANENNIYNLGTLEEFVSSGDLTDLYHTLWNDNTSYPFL
Assay: PBM E-score (8-mer binding enrichment) (E-score (-0.5 to 0.5)); higher = stronger / more preferred TF binding
Settings: protein concentration: 200 nM; construct: GST-full length
Over roughly 33,000 sequences, “E-score (-0.5 to 0.5)” has its median near -0.035; the highest 2% begin near 0.35. What follows is part of a selection rich in the highest values, with near analogues and random picks from the rest.
Quick rule: PBM E-score of at least 0.1 means Condition met, below that means Condition not met.

// known answers, use as guide
{"columns": ["POLYMER_SEQUENCE", "CLASSIFICATION"],
 "data": [
  ["CGTTCGGA", "Condition met"],
  ["AATCCTAG", "Condition not met"],
  ["GCTTCCAA", "Condition not met"],
  ["ACTTCCTG", "Condition not met"],
  ["ACTTCCCG", "Condition met"]
]}

Data request: Does the reported PBM E-score for GCGTTAGC fall at or above the 0.1 mark?
Data returned: Condition not met

Data request: Does the reported PBM E-score for TCACGGGA fall at or above the 0.1 mark?
Data returned: Condition met

Data request: Does the reported PBM E-score for GATTCGGA fall at or above the 0.1 mark?
Data returned: Condition met

Data request: Does the reported PBM E-score for CAGGCGGG fall at or above the 0.1 mark?
Data returned: Condition not met

Data request: Does the reported PBM E-score for GCGCCGCA fall at or above the 0.1 mark?
Data returned: Condition met

Data request: Does the reported PBM E-score for AATTCGGA fall at or above the 0.1 mark?
Data returned: Condition met

Data request: Does the reported PBM E-score for AGAACGTA fall at or above the 0.1 mark?
Data returned: Condition not met
